- TARGET OR SYSTEM: SIRT1 (Homo sapiens, UniProt Q96EB6)
- METHOD: Trp mass spectrometry assay of SIRT1 activity
- Assay type: biochemical
- TEST SETTINGS: Trp assay; percent maximum fold activation; read-out: Trp % Fold Act
PROPERTY MEASURED: Emax

Query: Could you share what Emax was measured for O=C(Nc1ccccn1)c1cnc2ccc(N3CCC(F)(F)C3)nn12 , tested on SIRT1 (Homo sapiens, UniProt Q96EB6)?
Result: ≥ 350%

Query: Could you share what Emax was measured for Cc1nc2ccc(N3CCCC(F)(F)C3)nn2c1C(=O)Nc1cccnn1 , tested on SIRT1 (Homo sapiens, UniProt Q96EB6)?
Result: ≥ 350%

Query: Could you share what Emax was measured for O=C(Nc1cccnc1)c1cnc2ccc(N3CCC(C(F)(F)F)C3)nn12 (centres unmarked) , tested on SIRT1 (Homo sapiens, UniProt Q96EB6)?
Result: ≥ 350%

Query: Could you share what Emax was measured for Cc1nc2ccc(-c3cccc(OC[C@H](O)CO)c3)nn2c1C(=O)Nc1cccnn1 , tested on SIRT1 (Homo sapiens, UniProt Q96EB6)?
Result: < 350%

Query: Could you share what Emax was measured for O=C(Nc1ccccn1)c1cnn2ccc(N3CCCCC3C(F)(F)F)nc12 (centres unmarked) , tested on SIRT1 (Homo sapiens, UniProt Q96EB6)?
Result: ≥ 350%

Query: Could you share what Emax was measured for O=C(Nc1cncc(F)c1)c1cnc2ccc(N3CCC(F)(F)CC3)nn12 , tested on SIRT1 (Homo sapiens, UniProt Q96EB6)?
Result: ≥ 350%

Query: Could you share what Emax was measured for O=C(Nc1ccncc1F)c1cnc2ccc(N3CCC(F)(F)C3)nn12 , tested on SIRT1 (Homo sapiens, UniProt Q96EB6)?
Result: < 350%

Query: Could you share what Emax was measured for Cc1nc2ccc(N3CC[C@H](N(C)C)C3)nn2c1C(=O)Nc1ccccn1 , tested on SIRT1 (Homo sapiens, UniProt Q96EB6)?
Result: ≥ 350%

Query: Could you share what Emax was measured for Cc1nc2ccc(N3CC[C@H](F)C3)nn2c1C(=O)Nc1cnccn1 , tested on SIRT1 (Homo sapiens, UniProt Q96EB6)?
Result: < 350%

Query: Could you share what Emax was measured for COc1ccc(NC(=O)c2c(C)nc3ccc(-c4cccc(OC(F)(F)F)c4)nn23)nn1 , tested on SIRT1 (Homo sapiens, UniProt Q96EB6)?
Result: < 350%

Query: Could you share what Emax was measured for CO[C@H]1CCN(c2ccc3ncc(C(=O)Nc4ccncc4F)n3n2)C1 , tested on SIRT1 (Homo sapiens, UniProt Q96EB6)?
Result: < 350%

Query: Could you share what Emax was measured for Cc1nc2ccc(-c3ccccc3Cl)nn2c1NC(=O)c1cccc(OCC(O)CO)n1 (centres unmarked) , tested on SIRT1 (Homo sapiens, UniProt Q96EB6)?
Result: < 350%

Query: Could you share what Emax was measured for CCOc1cc(NC(=O)c2c(C)nn3ccc(-c4ccccc4C(F)(F)F)nc23)ccn1 , tested on SIRT1 (Homo sapiens, UniProt Q96EB6)?
Result: ≥ 350%

Query: Could you share what Emax was measured for Cc1nc2c(OC[C@H](O)CO)cc(-c3ccccc3C(F)(F)F)nn2c1C(=O)Nc1cccnc1 , tested on SIRT1 (Homo sapiens, UniProt Q96EB6)?
Result: ≥ 350%

Query: Could you share what Emax was measured for Cc1nc2ccc(-c3ccccc3C(F)(F)F)nn2c1C(=O)Nc1ccnn1C(C)C , tested on SIRT1 (Homo sapiens, UniProt Q96EB6)?
Result: ≥ 350%

Query: Could you share what Emax was measured for Cc1cnc(C(=O)Nc2cnn3ccc(-c4ccccc4OC(F)(F)F)nc23)s1 , tested on SIRT1 (Homo sapiens, UniProt Q96EB6)?
Result: < 350%

Query: Could you share what Emax was measured for Cc1cncc(NC(=O)c2cnn3ccc(-c4ccccc4C(F)(F)F)nc23)n1 , tested on SIRT1 (Homo sapiens, UniProt Q96EB6)?
Result: < 350%

###

- TARGET OR SYSTEM: SIRT1 (Homo sapiens, UniProt Q96EB6)
- METHOD: Trp mass spectrometry assay of SIRT1 activity
- Format: biochemical
- TEST SETTINGS: Trp assay; percent maximum fold activation; read-out: Trp % Fold Act
For each record, write down the corresponding Emax.

Query: So what's the measured Emax for this one? O=C(Nc1cnc2ccc(-c3ccccc3C(F)(F)F)nn12)c1cnc(O)cn1
Result: < 350%

Query: So what's the measured Emax for this one? O=C(Nc1cccnn1)c1cnc2ccc(N3CCC(F)(F)C3)nn12
Result: ≥ 350%

Query: So what's the measured Emax for this one? Cc1nc(C(=O)Nc2cnc3ccc(-c4ccccc4C(F)(F)F)nn23)cs1
Result: ≥ 350%

Query: So what's the measured Emax for this one? Cc1cnc(NC(=O)c2cnn3ccc(-c4ccccc4OC(F)(F)F)nc23)s1
Result: < 350%

Query: So what's the measured Emax for this one? O=C(Nc1cncc(F)c1)c1cnc2ccc(N3CC[C@H](F)C3)nn12
Result: < 350%

Query: So what's the measured Emax for this one? Cc1cc(-c2ccccc2C(F)(F)F)nn2c(C(=O)Nc3ccnc(OC(C)C)n3)cnc12
Result: ≥ 350%

Query: So what's the measured Emax for this one? CN(C)[C@H]1CCN(c2ccc3ncc(C(=O)Nc4ccncn4)n3n2)C1
Result: < 350%

Query: So what's the measured Emax for this one? Cc1cc(NC(=O)c2cnn3ccc(-c4ccccc4OC(F)(F)F)nc23)ccn1
Result: ≥ 350%

###

- TARGET OR SYSTEM: SIRT1 (Homo sapiens, UniProt Q96EB6)
- METHOD: TAMRA based mass spectrometry assay of SIRT1 activity
- Assay type: biochemical
- TEST SETTINGS: TAMRA assay; concentration giving 150% activation of SIRT1
PROPERTY MEASURED: TAMRA EC1.5 (μM)

Past entries and their recorded results:
# COMPOUND, TARGET OR SYSTEM, TAMRA EC1.5 (μM)
data = [
    ("Cc1nc2c(C)cc(-c3ccccc3C(F)(F)F)nn2c1C(=O)Nc1ccnc(C2CC2)n1 [Compound 732]", "SIRT1 (Homo sapiens, UniProt Q96EB6)", "A (EC1.5<1 μM)"),
    ("CC(C)c1csc(C(=O)Nc2cnn3ccc(-c4ccccc4OC(F)(F)F)nc23)n1 [Compound 771]", "SIRT1 (Homo sapiens, UniProt Q96EB6)", "A (EC1.5<1 μM)"),
    ("CCNc1cccc(NC(=O)c2cnc3ccc(-c4ccccc4Cl)nn23)n1 [Compound 326]", "SIRT1 (Homo sapiens, UniProt Q96EB6)", "A (EC1.5<1 μM)"),
    ("CCOc1cc(NC(=O)c2cnn3ccc(-c4ccccc4OC(F)(F)F)nc23)ccn1 [Compound 626]", "SIRT1 (Homo sapiens, UniProt Q96EB6)", "A (EC1.5<1 μM)"),
    ("Cc1scnc1C(=O)Nc1cnn2ccc(-c3ccccc3C(F)(F)F)nc12 [Compound 803]", "SIRT1 (Homo sapiens, UniProt Q96EB6)", "B (EC1.5 1-25 μM)"),
]

Query: So what's the measured TAMRA EC1.5 (μM) for this one? Cc1ccc(NC(=O)c2c(C)nc3ccc(-c4ccccc4C)nn23)nn1 [Compound 694]
Result: B (EC1.5 1-25 μM)

Query: So what's the measured TAMRA EC1.5 (μM) for this one? O=C(Nc1ccc(F)cn1)c1cnc2ccc(-c3ccccc3OC[C@H](O)CO)nn12 [Compound 814]
Result: B (EC1.5 1-25 μM)

Query: So what's the measured TAMRA EC1.5 (μM) for this one? O=C(Nc1cccc(OCC(O)CO)n1)c1c(O)nc2ccc(-c3ccccc3C(F)(F)F)nn12 (centres unmarked) [Compound 344]
Result: B (EC1.5 1-25 μM)

###

- TARGET OR SYSTEM: SIRT1 (Homo sapiens, UniProt Q96EB6)
- Sequence (Q96EB6 1-747): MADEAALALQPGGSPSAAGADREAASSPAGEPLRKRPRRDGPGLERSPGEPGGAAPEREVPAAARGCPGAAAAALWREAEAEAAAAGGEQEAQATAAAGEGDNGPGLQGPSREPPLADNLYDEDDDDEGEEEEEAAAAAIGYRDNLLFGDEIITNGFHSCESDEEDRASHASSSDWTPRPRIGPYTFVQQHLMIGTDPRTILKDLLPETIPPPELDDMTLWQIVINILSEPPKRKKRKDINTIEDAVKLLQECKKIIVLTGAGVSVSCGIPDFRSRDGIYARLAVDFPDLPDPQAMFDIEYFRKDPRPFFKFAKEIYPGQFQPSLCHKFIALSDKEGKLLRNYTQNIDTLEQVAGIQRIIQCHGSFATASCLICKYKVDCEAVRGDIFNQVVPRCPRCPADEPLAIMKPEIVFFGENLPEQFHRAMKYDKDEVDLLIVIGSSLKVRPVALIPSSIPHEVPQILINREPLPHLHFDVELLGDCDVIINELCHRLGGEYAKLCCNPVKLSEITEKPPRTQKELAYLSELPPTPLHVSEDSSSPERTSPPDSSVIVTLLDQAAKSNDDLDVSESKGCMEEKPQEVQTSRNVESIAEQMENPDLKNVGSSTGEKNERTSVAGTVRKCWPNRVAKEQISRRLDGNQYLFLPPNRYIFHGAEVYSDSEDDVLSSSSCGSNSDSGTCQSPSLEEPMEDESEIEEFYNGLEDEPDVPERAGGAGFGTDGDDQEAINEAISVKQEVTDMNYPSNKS
- METHOD: TAMRA based mass spectrometry assay of SIRT1 activity
- Type: biochemical
- TEST SETTINGS: TAMRA peptide substrate; concentration giving 150% activation of SIRT1
PROPERTY MEASURED: TAMRA EC1.5

Past entries and their recorded results:
# COMPOUND, TARGET OR SYSTEM, TAMRA EC1.5
measured = [
    ("Cc1cc(C)nc(NC(=O)c2cnc3ccc(-c4ccccc4OC(F)(F)F)nn23)n1 [Compound 399]", "SIRT1 (Homo sapiens, UniProt Q96EB6)", "B (EC1.5 1-25 μM)"),
    ("Cc1nc2c(C)cc(-c3ccccc3OC(F)(F)F)nn2c1C(=O)Nc1ccncc1F [Compound 494]", "SIRT1 (Homo sapiens, UniProt Q96EB6)", "A (EC1.5<1 μM)"),
    ("Cc1cc2ncc(NC(=O)c3cccc(N4CCC4)n3)n2nc1-c1ccccc1C(F)(F)F [Compound 448]", "SIRT1 (Homo sapiens, UniProt Q96EB6)", "A (EC1.5<1 μM)"),
    ("Cc1nc2ccc(-c3ccccc3OC(F)(F)F)nn2c1C(=O)Nc1ccncc1 [Compound 497]", "SIRT1 (Homo sapiens, UniProt Q96EB6)", "A (EC1.5<1 μM)"),
]

Query: So what's the measured TAMRA EC1.5 for this one? O=C(Nc1cccc(N2CCOCC2)n1)c1ncn2ccc(-c3ccccc3C(F)(F)F)nc12 [Compound 454]
Result: A (EC1.5<1 μM)

Query: So what's the measured TAMRA EC1.5 for this one? Cc1cccc(NC(=O)c2cnc3c(C)cc(-c4ccccc4C(F)(F)F)nn23)n1 [Compound 539]
Result: A (EC1.5<1 μM)

Query: So what's the measured TAMRA EC1.5 for this one? CC1(COc2cccc(NC(=O)c3cnc4ccc(-c5ccccc5OC(F)(F)F)nn34)n2)COC1 [Compound 400]
Result: A (EC1.5<1 μM)

Query: So what's the measured TAMRA EC1.5 for this one? Cc1cc2ncc(NC(=O)c3cnccn3)n2nc1-c1ccccc1C(F)(F)F [Compound 442]
Result: A (EC1.5<1 μM)

Query: So what's the measured TAMRA EC1.5 for this one? Cc1cccc(C(=O)Nc2cnc3ccc(N4CC[C@H](F)C4)nn23)n1 [Compound 565]
Result: B (EC1.5 1-25 μM)

Query: So what's the measured TAMRA EC1.5 for this one? Cc1cc(C)nc(NC(=O)c2cnc3ccc(N4CC[C@H](F)C4)nn23)c1 [Compound 490]
Result: B (EC1.5 1-25 μM)

Query: So what's the measured TAMRA EC1.5 for this one? Cc1cc(-c2ccccc2C(F)(F)F)nn2c(NC(=O)c3cccc(OCC(O)CO)n3)cnc12 (centres unmarked) [Compound 427]
Result: A (EC1.5<1 μM)
